Test system: Inhibin beta A chain (activin A)
Assay: INHBA (activin A) binders on microarrays, primary screen, biochemical, small-molecule microarray, 635 nm fluorescence scan (AID 1107);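 also: mouse activin A protein probed at 4.33 µg/mL on printed slides; score merges bound-protein fluorescence near 667 nm with spot signal-to-noise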
Details: small-molecule microarray binding, higher = more signal
Kindly supply the reported composite z-score values for the records listed here.
Number only, please.

Record COCCOC(=O)N1C(=O)[C@@]2(c3cc(C#CC4=CCCCC4)ccc31)[C@H](c1ccc(OCCO)cc1)N1[C@H](c3ccccc3)[C@H](c3ccccc3)OC(=O)[C@H]1[C@@H]2C(=O)NC[C@H](O)c1ccccc1 . Reported composite z-score: 1.29

Record C=CCOC(=O)[C@H]1[C@@H]2C(=O)O[C@@H](c3ccccc3)[C@@H](c3ccccc3)N2[C@@H](c2ccc(OCCOC(=O)[C@@H]3C[C@@H]4C(=O)N[C@@H](CCCCN(C)C)C(=O)N4[C@@H]3c3ccc(O)cc3)cc2)[C@]12C(=O)Nc1ccccc12 . Reported composite z-score: -0.471

Record C=CCNC(=O)[C@H]1[C@@H]2C(=O)O[C@@H](c3ccccc3)[C@@H](c3ccccc3)N2[C@@H](c2ccc(O)cc2)[C@]12C(=O)N(C(=O)OCCOC)c1ccccc12 . Reported composite z-score: 0.204

Record COC(=O)c1c(CC[C@@H](CO)NC(=O)N[C@H](Cn2cc(C3(O)CCCCC3)nn2)C(C)C)oc(C(C)=O)c1C(=O)OC . Reported composite z-score: 0.368

Record CC(C)(C)OC(=O)CC[C@]1(C(=O)NCc2ccccc2)N=C(c2ccc(OCCCO)cc2)O[C@H]1c1ccccc1CN=[N+]=[N-] . Reported composite z-score: 0.554

###

Tested on: Sam68 (KHDRBS1)
Assay: Sam68 small-molecule binders, primary screen, biochemical, small-molecule microarray, 635 nm fluorescence (AID 1125);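 also: score merges 667 nm channel intensity with signal to noise over triplicate slides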
Settings: small-molecule microarray binding, higher = more signal
readout_type: composite z-score

Record COC(=O)[C@@]1(Cc2ccccc2)[C@H]2c3cc(C(=O)N(C)C)n(CCc4ccc(O)c(OC)c4)c3C[C@H]2CN1C(=O)c1ccccc1 . Reported composite z-score: 0.169

Record COCCCNC(=O)[C@@]1(Cc2ccccc2N=[N+]=[N-])N=C(c2ccc(OCCCO)cc2)O[C@H]1c1ccccc1 . Reported composite z-score: 1.04

Record COC(=O)[C@@]1(Cc2ccc(F)cc2)[C@H]2c3cc(C(=O)N(C)C)n(CCc4ccc(O)c(OC)c4)c3C[C@H]2CN1C(=O)c1ccccc1 . Reported composite z-score: 0.326

Record [N-]=[N+]=Nc1ccccc1C[C@]1(C(N)=O)N=C(c2ccc(OCCCO)cc2)O[C@H]1c1ccccc1N=[N+]=[N-] . Reported composite z-score: 1.31

Record C=CCNC(=O)[C@@H]1[C@H]2C(=O)O[C@H](c3ccccc3)[C@H](c3ccccc3)N2[C@H](c2ccc(O)cc2)[C@@]12C(=O)N(C(=O)OCCOC)c1ccc(C#CC3(O)CCCCCC3)cc12 . Reported composite z-score: -0.669

Record CCCC[C@@H]1C[C@H]1[C@@H](NC(=O)c1cccs1)c1ccc(C(F)(F)F)cc1 . Reported composite z-score: -0.154

Record COC(=O)c1nc2oc1CC[C@@H](CO)NC(=O)N(C)Cc1cnnn1C[C@H](Cc1ccccc1)NC2=O . Reported composite z-score: -0.0671

###

Kindly supply the reported composite z-score values for the records listed here.
Test system: PRMT1 (protein arginine N-methyltransferase 1)
Assay: PRMT1 binders on small-molecule microarrays, primary screen, biochemical, small-molecule microarray, 635 nm fluorescence (AID 1088);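 also: binding of Prmt1 protein to compounds spotted on small-molecule microarray slides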
Conditions: small-molecule microarray binding, higher = more signal
Number only, please.

Record O=C1C2C=CC(C(O)c3ccccc3)N(Nc3ccccc3F)C2C(=O)N1c1ccccc1 (stereo unspecified) . Reported composite z-score: 0.101

Record O=C(N1CCCCC1)[C@@]1(CCS(=O)(=O)c2ccccc2)COC(c2ccc(OCCCO)cc2)=N1 . Reported composite z-score: 1.54

Record Cc1ccc(S[C@]2(C(=O)NCC(F)(F)F)CC(=O)N(Cc3ccccc3)[C@@H]2c2ccc(CO)cc2I)cc1 . Reported composite z-score: 0.29

Record CC(C)(C)N1CC=CC23O[C@@H]4C=CCOC(=O)[C@@H]4[C@H]2C(=O)N(CCCCCCO)[C@@H]3C1=O (stereo partly specified) . Reported composite z-score: -0.911

Record CCCCCCc1nc(C2CC2)cc2c1[Si](C(C)C)(C(C)C)O[C@H]2c1ccccc1 . Reported composite z-score: -0.147

Record O=C(CS)NCCCCCNC(=O)[C@@H]1C[C@@H]2C(=O)N3CCC[C@H]3C(=O)N2[C@@H]1c1cccc(OCCO)c1 . Reported composite z-score: 1.07

Record CC(CO)N1C(=O)[C@@H]2[C@H]3C(=O)OCC=C[C@H]3OC23C=CCN(CCN2CCOCC2)C(=O)[C@@H]13 (stereo partly specified) . Reported composite z-score: 0.658

Record COc1ccc([Si](C)(C)[C@@H]2[C@@H](CCO)O[C@]3(C(=O)N(Cc4ccc(N5CCCCC5=O)cc4)c4ccccc43)[C@H]2C)cc1 . Reported composite z-score: 1.53

Record [N-]=[N+]=Nc1ccccc1C[C@]1(C(=O)N2CCOCC2)N=C(c2ccc(OCCCO)cc2)O[C@H]1c1ccccc1 . Reported composite z-score: 1.55

Record C=C(COC)/C(=C/C[C@H](OC(=O)c1ccncc1)c1ccccc1OCCO)c1cnc2ccccc2c1 . Reported composite z-score: 1.54

Record CC(C)(C)OC(=O)CC[C@@]1(C(=O)NCc2ccccc2)N=C(c2ccc(OCCCO)cc2)O[C@@H]1c1ccccc1N=[N+]=[N-] . Reported composite z-score: 1.56

Record C=C(C)c1cc2c(c(CCCCCC)n1)[Si](C(C)C)(C(C)C)OC2 . Reported composite z-score: -0.293

Record COc1ccc(C(O)C2C=CC3C(=O)N(c4ccccc4)C(=O)C3N2Nc2ccc([N+](=O)[O-])cc2)cc1 (stereo unspecified) . Reported composite z-score: 1.11

Record C=CCC(OC(C)=O)[C@@H]1[C@@H](N(Cc2ccc(-c3ccccc3)cc2)C(=O)Cc2ccc(F)cc2)c2cc(OCCCO)ccc2N1C(=O)Cc1ccc(OC)cc1 (stereo partly specified) . Reported composite z-score: -0.712

Record CC(C)Cc1ccc(CN2CC[C@@H](NC(=O)Nc3ccccc3)C2)cc1 . Reported composite z-score: -0.785

Record COCCOC(=O)N1C(=O)[C@@]2(c3cc(C#CCC(C(=O)OC)C(=O)OC)ccc31)[C@H](C(=O)N1CCc3cc(OC)c(OC)cc3C1)[C@H]1C(=O)O[C@H](c3ccccc3)[C@H](c3ccccc3)N1[C@@H]2c1ccc(OCCO)cc1 . Reported composite z-score: 1.54

###

Assay: A549 cell viability effects, profiling panel, calcein-AM fluorescence, 48 h, basal (AID 1162); also: test concentration not given here
Settings: higher = more signal
readout_type: z-score
Number only, please.

Record O=C1NC(=O)C2C1C=CC(C(O)CCc1ccccc1)N2Nc1ccc(Cl)cc1Cl (centres undefined) . Reported z-score: -0.308

Record CC(C)N1C(=O)C[C@@](C(=O)NCCCN(C)C)(c2ccc([N+](=O)[O-])cc2)[C@H]1c1ccc(CO)cc1 . Reported z-score: 0.173

Record C=CCNC(=O)[C@@H]1[C@H]2C(=O)O[C@H](c3ccccc3)[C@H](c3ccccc3)N2[C@H](c2ccc(O)cc2)[C@@]12C(=O)N(C(=O)OCCOC)c1ccc(C#CC3(O)CCCCCC3)cc12 . Reported z-score: 0.0287

Record CCCCC(O)C1C=CC2C(=O)N(c3ccccc3)C(=O)C2N1Nc1ccc(C(C)C)cc1 (centres undefined) . Reported z-score: -0.341

Record O=C1OCCC=C[C@H]2OC34C=CCN(Cn5nnc6ccccc65)C(=O)[C@H]3N(CCCCCCO)C(=O)[C@@H]4C12 (some centres undefined) . Reported z-score: 0.16

Record CCOC(=O)C[C@H]1[C@H](OC(=O)c2ccccc2-c2ccccc2)[C@@H](NC(=O)C2CCCCC2)c2cc(OCCCO)ccc2N1C(=O)Cc1ccc(OC)cc1 . Reported z-score: 0.544

Record N#Cc1ccc(NN2C(C(O)c3ccc(F)cc3)C=CC3C(=O)N(c4ccccc4)C(=O)C32)cc1 (centres undefined) . Reported z-score: -0.518

Record COC(=O)[C@@]1(Cc2ccc(OC)cc2)[C@@H]2C(=CC(=O)[C@H]2CC(=O)C(=O)N(C)C)CN1C(=O)c1ccccc1 . Reported z-score: -1.85

Record C[N+](C)(C)CCCCCCNC(=O)[C@H]1C[C@H]2C(=O)N[C@@H](Cc3ccccc3)C(=O)N2[C@H]1c1ccc(O)cc1 . Reported z-score: -0.367

Record CCOC(=O)C1=C[C@@H](c2ccccc2)N(S(=O)(=O)c2ccc(C)cc2)[C@H]1c1ccccc1Cl . Reported z-score: -0.968

Record C=C(COC)C(=O)CC[C@@H](OC(=O)c1cccnc1)c1ccc(OCCO)cc1 . Reported z-score: -0.1

Record COCCOC(=O)N1C(=O)[C@@]2(c3cc(C#CCC(C(=O)OC)C(=O)OC)ccc31)[C@H](C(=O)N1CCc3cc(OC)c(OC)cc3C1)[C@H]1C(=O)O[C@H](c3ccccc3)[C@H](c3ccccc3)N1[C@@H]2c1ccc(OCCO)cc1 . Reported z-score: 0.206

Record Cc1cc(C)c(C(O)C2C=CC3C(=O)NC(=O)C3N2Nc2ccc(Cl)cc2Cl)c(C)c1 (centres undefined) . Reported z-score: -2.15

Record O=C(CS)NCCCCCNC(=O)[C@@H]1C[C@@H]2C(=O)N3CCC[C@H]3C(=O)N2[C@@H]1c1cccc(OCCO)c1 . Reported z-score: -0.174

Record [N-]=[N+]=NCc1ccccc1[C@H]1OC(c2ccc(OCCCO)cc2)=N[C@@]1(CCS(=O)(=O)c1ccccc1)C(=O)NCC(O)CO (some centres undefined) . Reported z-score: -0.257

Record O=C1C2C=CC(C(O)c3ccc(F)cc3)N(n3cnnc3)C2C(=O)N1Cc1ccccc1 (centres undefined) . Reported z-score: -0.184

Record CC(=O)NCCCC[C@@H]1NC(=O)[C@@H]2C[C@H](C(=O)NCCCC[N+](C)(C)C)[C@H](c3ccc(O)cc3)N2C1=O . Reported z-score: -0.431

Record COCCOC(=O)N1C(=O)[C@@]2(c3cc(C#CC4=CCCCC4)ccc31)[C@H](c1ccc(OCCO)cc1)N1[C@H](c3ccccc3)[C@H](c3ccccc3)OC(=O)[C@H]1[C@@H]2C(=O)N1CCN(c2ncccn2)CC1 . Reported z-score: -0.471

Record CCCC[C@@H]1C[C@H]1[C@@H](NC(=O)c1ccccc1)c1ccc(C(F)(F)F)cc1 . Reported z-score: -1.46

Record C=CCOC(=O)[C@H]1[C@@H]2C(=O)O[C@@H](c3ccccc3)[C@@H](c3ccccc3)N2[C@@H](c2ccc(OCCOC(=O)[C@@H]3C[C@@H]4C(=O)N[C@@H](CCCCN(C)C)C(=O)N4[C@@H]3c3ccc(O)cc3)cc2)[C@]12C(=O)Nc1ccccc12 . Reported z-score: -0.0988

Record COc1ccc([Si](C)(C)[C@@H]2[C@@H](CC(=O)N3Cc4ccccc4C[C@H]3CO)O[C@]3(C(=O)N(Cc4cccc(N5C(=O)c6cccc7cccc5c67)c4)c4ccccc43)[C@H]2C)cc1 . Reported z-score: -0.419

Record CC[C@H]1C2=C3C(CC[C@H]4C(OCc5ccc(F)cc5C(F)(F)F)OC[C@](C)([C@@H]34)N(C(=O)OC(C)(C)C)C2)C(COC)C1COC (some centres undefined) . Reported z-score: -0.266

Record COCCCNC(=O)[C@]1(CCS(=O)(=O)c2ccccc2)N=C(c2ccc(OCCCO)cc2)O[C@@H]1c1ccccc1N=[N+]=[N-] . Reported z-score: 0.76

Record CCCCCCc1nc(-c2cc(C)c(OC)c(C)c2)c(C)c2c1[Si](C(C)C)(C(C)C)OC2 . Reported z-score: -0.499
